Target: hKv7.2/7.3 (Homo sapiens, UniProt O43525+O43526)
Construct: host or cells: HEK cells, tetracycline-inducible expression
Experiment: Kv7.2/7.3 Activation Assay, QPatch planar patch-clamp single concentration screen
Assay type: cell-based
Settings: increase in current over baseline, Kv7.2/Kv7.3 co-expressing HEK cells, compound concentration 3 μM, steady-state current at end of 2 s pulse to −30 mV
MEASUREMENT NAME: QPatch Kv7.2/7.3 Activity

[ask] Item under review: Cc1cccc(-c2c(NC(=O)CC(C)(C)O)nn3ccc(C(F)(F)F)cc23)c1 . Reported QPatch Kv7.2/7.3 Activity?
[reply] + (2.0-3.99 (+))

[ask] Then Cc1ccc(-c2c(NC(=O)CC(C)(C)O)nn3ccc(C(F)(F)F)cc23)cc1 ?
[reply] + (2.0-3.99 (+))

[ask] Record: CC(C)(C)CC(=O)Nc1nn2c(Cl)cc(Cl)cc2c1-c1ccc(F)cc1
[reply] ++ (4.0-5.99 (++))

[ask] Same read-out for CC(C)(O)CC(=O)Nc1nn2c(C3CC3)cccc2c1C1CCC1 ?
[reply] + (2.0-3.99 (+))

[ask] Further, for CC(C)(C)CC(=O)Nc1nn2ccc(C(C)(C)O)cc2c1-c1ccc(F)cc1 ?
[reply] ++ (4.0-5.99 (++))

[ask] Same for C[C@](O)(CC(=O)Nc1nn2ccc(C(F)(F)F)cc2c1-c1ccc(F)cc1)c1ccccn1
[reply] + (2.0-3.99 (+))

[ask] CC(C)(C)CC(=O)Nc1nn2ccc(C(C)(C)O)cc2c1C1CCC1 , same question.
[reply] ++ (4.0-5.99 (++))

[ask] Can you check C[C@](O)(CC(=O)Nc1nn2ccc(C(F)(F)F)cc2c1-c1ccc(F)cc1)c1ccccc1 next?
[reply] + (2.0-3.99 (+))

Further cases:
[ask] Would you kindly share the measured QPatch Kv7.2/7.3 Activity for CC(C)(O)CC(=O)Nc1nn2ccc(Cl)cc2c1C1CCC1 ?
[reply] + (2.0-3.99 (+))

[ask] Cool, now C[C@](O)(CC(=O)Nc1nn2ccc(C(F)(F)F)cc2c1C1CCC1)c1ccccn1
[reply] ++ (4.0-5.99 (++))

[ask] Same question, CC(C)(O)CC(=O)Nc1nn2ccc(C(F)(F)F)cc2c1-c1ccccc1 this time
[reply] + (2.0-3.99 (+))

[ask] Note, next up: CC(C)(O)CC(=O)Nc1nn2ccc(C(F)(F)F)cc2c1-c1ccc(Cl)cc1
[reply] + (2.0-3.99 (+))

[ask] # repeat for CC(C)(C)CC(=O)Nc1nn2ccc(C#N)cc2c1C1CCC1
[reply] + (2.0-3.99 (+))

[ask] Repeat for the following compound: CC(C)(O)CC(=O)Nc1nn2ccc(Br)cc2c1C1CCC1
[reply] + (2.0-3.99 (+))
